Assay: activity coefficient (dimensionless); of the first substance listed, at infinite dilution; xn = mol fraction of the nth substance listed
Settings: 314.1 K; 101 kPa; Liquid; Chromatography; x1 = 0
Measured attribute: activity coefficient

- COc1ccccc1 [anisole] + CCCCCCCCCCCCCC(=O)O: 1.32
- Cc1ccccc1 [toluene] + CCCCCCCCCC(=O)O: 1.15
- CCC(C)O (stereo not given) [butan-2-ol] + CCCCCCCCCCCC(=O)O: 1.28

(A) ClCCCl [1,2-dichloroethane] + CCCCCCCCCCCCCC(=O)O
(B) ClC(Cl)Cl [trichloromethane] + CCCCCCCCCCCC(=O)O
(C) CCCCCCC [heptane] + CCCCCCCCCC(=O)O
Order field: activity coefficient | Direction: descending (largest first) The labels, placed in the requested order, form the answer.
C, A, B
